# Tested on: ISC-enriched organoids
# method notes: Primary screen, 384-well 2.5-D organoid differentiation (ENR+CD, 6 days): basal lysozyme secretion (LYZ.NS)
# Assay type: cell-based, murine
# condition description: Dose 10.00 uM; primary screen
Use -0.6 as the dividing line for Z.LYZ.NS (standard z score), with the line itself on the met side and lower values as not met.

Reference set (4 entries):
CC(C)[C@H](O)C(=O)N[C@@H](C)C(=O)N[C@@H]1C(=O)N(C)CCc2ccccc21; not met
CNC(=O)c1ccccc1Nc1nc(Nc2ccc(N3CCOCC3)cc2OC)ncc1Cl; not met
Cc1ccc(S(=O)(=O)Cc2nc(-c3ccc(C(=O)NCc4cccnc4)cc3)oc2C)cc1; not met
O=S(=O)(c1ccccc1)c1cnc2c(N3CCNCC3)cccc2c1; met

Q: Determine whether measured Z.LYZ.NS (standard z score) meets or exceeds -0.6 for O=C1NC(=O)/C(=C/c2cccc(C(F)(F)F)c2)S1
A: not met

Q: Determine whether measured Z.LYZ.NS (standard z score) meets or exceeds -0.6 for Cc1ccc(-n2nccn2)c(C(=O)N2CCN(c3nc4cc(Cl)ccc4o3)CC[C@H]2C)c1
A: met

Q: Determine whether measured Z.LYZ.NS (standard z score) meets or exceeds -0.6 for Cc1cn([C@H]2C=C[C@@H](CO)O2)c(=O)[nH]c1=O
A: not met

Q: Determine whether measured Z.LYZ.NS (standard z score) meets or exceeds -0.6 for Cl.NC(=O)c1cnc(N[C@@H]2CCCC[C@@H]2N)nc1Nc1cccc(-n2nccn2)c1 [PRT062607 (P505-15, BIIB057) HCl]
A: not met

---

# System: ISC-enriched organoids
# method notes: Primary screen, 384-well 2.5-D organoid differentiation (ENR+CD, 6 days): basal lysozyme secretion (LYZ.NS)
# Format: cell-based, murine
# condition description: primary screen, dose 0.08 uM, ENR+CD 6 days, FC vs plate median
# note: exactly 0.09 log 2 fold change is not below, so it is No; use Yes for Dose.FC.LYZ.NS strictly under it

Reference set (2 entries):
CCNC(=O)c1noc(-c2cc(C(C)C)c(O)cc2O)c1-c1ccc(CN2CCOCC2)cc1; Yes
CN(C)C(=O)c1ccc(S(=O)(=O)c2ccc(NC(=O)[C@@](C)(O)C(F)(F)F)c(Cl)c2)cc1; Yes

Q: Quick check: does O=C(/C=C/c1cccc(S(=O)(=O)Nc2ccccc2)c1)NO have Dose.FC.LYZ.NS under 0.09 log 2 fold change?
A: Yes

Q: Quick check: does Cc1cc([C@@H](C)Nc2ccccc2C(=O)O)c2nc(N3CCOCC3)cc(=O)n2c1 have Dose.FC.LYZ.NS under 0.09 log 2 fold change?
A: No

Q: Quick check: does CC1(C)CCC(c2ccc(Cl)cc2)=C(CN2CCN(c3ccc(C(=O)NS(=O)(=O)c4ccc(N[C@H](CCN5CCOCC5)CSc5ccccc5)c(S(=O)(=O)C(F)(F)F)c4)cc3)CC2)C1 have Dose.FC.LYZ.NS under 0.09 log 2 fold change?
A: Yes

Q: Quick check: does O=C1C(=O)N(Cc2ccc(Cl)c(Cl)c2)c2ccccc21 have Dose.FC.LYZ.NS under 0.09 log 2 fold change?
A: No

---

# System: ISC-enriched organoids
# method notes: Primary screen, 384-well 2.5-D organoid differentiation (ENR+CD, 6 days, Target Selective Inhibitor Library, vs whole-plate median): ATP (CellTiter-Glo 3D, CTG)
# condition description: Dose 0.08 uM; primary screen, standard z score
Give Z.CTG for every item shown.
One number for each entry.

Please give Z.CTG, item by item, for the list that follows.
1. Cc1cccc(-c2nn3c(c2-c2ccnc4ccc(C(N)=O)cc24)CCC3)n1 [LY2157299]
2. Cc1ccc(NC(=O)c2ccc(CN3CCN(C)CC3)cc2)cc1Nc1nccc(-c2cccnc2)n1 [Imatinib (STI571)]

A:
0.218
−0.357

Please give Z.CTG, item by item, for the list that follows.
1. CCn1c(=O)c2c(nc(/C=C/c3ccc(OC)c(OC)c3)n2C)n(CC)c1=O [Istradefylline]
2. NC(=O)c1cccc(-c2cc(Nc3ccc(OC(F)(F)F)cc3)ncn2)c1 [GNF-2]

A:
["−0.107", 0.376]

Please give Z.CTG, item by item, for the list that follows.
1. Cc1ccc(NCCCc2ccccc2)c(N)c1 [JSH-23]
2. O=c1cc(-c2cccc3c2Sc2ccccc2S3)oc(N2CCOCC2)c1 [KU-55933 (ATM Kinase Inhibitor)]

A:
1. 0.462
2. 1.251

---

# Test system: ISC-enriched organoids
# method notes: Primary screen, 384-well 2.5-D organoid differentiation (ENR+CD, 6 days): carbachol-induced lysozyme secretion (LYZ.S)
# Assay type: cell-based, murine
# condition description: Dose 0.08 uM; primary screen, FC vs plate median
# note: exactly 0.08 log 2 fold change is not below, so it is no (0); use yes (1) for Dose.FC.LYZ.S strictly under it

Reference set (4 entries):
O=c1cc(N2CCOCC2)oc2c1ccc1ccccc12; yes (1)
CC(C)c1noc(N2CCC(COc3ccc(-c4ccc(S(C)(=O)=O)cc4)nc3)CC2)n1; no (0)
CN1C(=O)C(Cc2c[nH]c3ccccc23)NC1=S (stereo not shown); yes (1)
Clc1ccc(N/N=C(\c2ccccc2)c2ccccn2)nc1; no (0)

Q: Quick check: does O=C(Nc1ccccc1)c1cc([N+](=O)[O-])ccc1Cl have Dose.FC.LYZ.S under 0.08 log 2 fold change?
A: yes (1)

Q: Quick check: does COc1ccc(CNCc2cccc3ccccc23)cc1.Cl [ML133 HCl] have Dose.FC.LYZ.S under 0.08 log 2 fold change?
A: yes (1)

Q: Quick check: does O=c1cc(-c2cccc3c2Sc2ccccc2S3)oc(N2CCOCC2)c1 have Dose.FC.LYZ.S under 0.08 log 2 fold change?
A: no (0)

Q: Quick check: does O=C(c1ccc(Nc2nccc(-c3cc4ccccc4s3)n2)cc1)N1CCC(N2CCCC2)CC1 have Dose.FC.LYZ.S under 0.08 log 2 fold change?
A: no (0)

Q: Quick check: does Cc1c(C(=O)Nc2ccc(N3C[C@@H](C)O[C@@H](C)C3)nc2)cccc1-c1ccc(OC(F)(F)F)cc1 have Dose.FC.LYZ.S under 0.08 log 2 fold change?
A: no (0)

Q: Quick check: does CC(C)(F)C[C@H](N[C@@H](c1ccc(-c2ccc(S(C)(=O)=O)cc2)cc1)C(F)(F)F)C(=O)NC1(C#N)CC1 have Dose.FC.LYZ.S under 0.08 log 2 fold change?
A: no (0)

Q: Quick check: does c1cc(-c2cnn3cc(-c4ccc(N5CCNCC5)cc4)cnc23)c2cccnc2c1 have Dose.FC.LYZ.S under 0.08 log 2 fold change?
A: no (0)

Q: Quick check: does CCCC(=O)Nc1cccc(NC(=O)c2ccccc2Br)c1 have Dose.FC.LYZ.S under 0.08 log 2 fold change?
A: yes (1)

Q: Quick check: does CC[C@@H]1/C=C/C=C/C[C@H](C)[C@H](O)[C@](C)(O)C(=O)[C@H](C)[C@@H](O)[C@H](C)C(=O)[C@H](C)[C@@H](O)[C@H](C)/C=C/C(=O)O[C@H]2[C@@H](C)[C@@H](CC1)O[C@@]1(CC[C@@H](C)[C@@H](C[C@H](C)O)O1)[C@@H]2C have Dose.FC.LYZ.S under 0.08 log 2 fold change?
A: yes (1)

Q: Quick check: does CC(C)c1ccc(NC(=O)Cn2cnc3c2c(=O)n(C)c(=O)n3C)cc1 have Dose.FC.LYZ.S under 0.08 log 2 fold change?
A: no (0)

Q: Quick check: does Cc1cnc(NC(=O)Nc2cc(Br)c(C)cc2OC[C@@H]2CNCCO2)cn1 have Dose.FC.LYZ.S under 0.08 log 2 fold change?
A: yes (1)

Q: Quick check: does CC(C)(Cc1ccc2ccccc2c1)NC[C@@H](O)COc1cccc(Cl)c1C#N have Dose.FC.LYZ.S under 0.08 log 2 fold change?
A: no (0)

---

# System: ISC-enriched organoids
# method notes: Primary screen, 384-well 2.5-D organoid differentiation (ENR+CD, 6 days, Target Selective Inhibitor Library, vs whole-plate median): ATP (CellTiter-Glo 3D, CTG)
# condition description: Dose 0.08 uM; ENR+CD, 6 days; FC vs plate median
Use 0.2 log 2 fold change as the dividing line for Dose.FC.CTG, with the line itself on the Yes side and lower values as No.

Reference set (3 entries):
COc1ccc(C[C@@H](C)NC[C@H](O)c2ccc(O)c(NC=O)c2)cc1.COc1ccc(C[C@@H](C)NC[C@H](O)c2ccc(O)c(NC=O)c2)cc1.O=C(O)/C=C/C(=O)O [Formoterol Hemifumarate]; Yes
CS(=O)(=O)N1CCN(Cc2cc3nc(-c4cccc5[nH]ncc45)nc(N4CCOCC4)c3s2)CC1 [GDC-0941]; Yes
CCCCCCCCc1ccc(CCC(N)(CO)CO)cc1.Cl [Fingolimod (FTY720) HCl]; No

Q: Determine whether measured Dose.FC.CTG meets or exceeds 0.2 log 2 fold change for CC1=C(C(=O)OC2CCCCC2)C(c2ccc([N+](=O)[O-])cc2)C2=C(CC(C)(C)CC2=O)N1 (stereo not drawn) [FLI-06]
A: No

Q: Determine whether measured Dose.FC.CTG meets or exceeds 0.2 log 2 fold change for O=C(NC(NC(=S)Nc1ccc(F)c([N+](=O)[O-])c1)C(Cl)(Cl)Cl)C(c1ccccc1)c1ccccc1 (stereo not drawn) [CGK733]
A: No

Q: Determine whether measured Dose.FC.CTG meets or exceeds 0.2 log 2 fold change for COc1cc(Nc2ncc(F)c(Nc3ccc4c(n3)N(COP(=O)(O)O)C(=O)C(C)(C)O4)n2)cc(OC)c1OC [Fostamatinib (R788)]
A: Yes
